List of Inhibition values.
tested on: Plasmodium falciparum; assay: GSK_TCMDC: Inhibition of Plasmodium falciparum 3D7 in whole red blood cells, using parasite LDH activity as an index of growth. Test compounds present at 2uM; assay type: functional
assay metric: Inhibition (%)

{"columns": ["molecule", "units", "measured result"],
 "data": [
  ["CC(C)(c1ccccc1)c1ccc(O)c(CN2CCOCC2)c1", "%", 99],
  ["CO/C(=C\\C=C\\c1cc2cc(Cl)c(Cl)cc2[nH]1)C(=O)NCCCN1CCN(c2cccc(Cl)c2)CC1", "%", 100],
  ["CC(Oc1ccc(Cl)cc1)C(=O)Nc1cc(C(F)(F)F)ccc1N1CCOCC1 (stereo not given)", "%", 97],
  ["O=C(Nc1ccnc(N2CCCN(Cc3cccc(O)c3)CC2)c1)c1ccc(F)cc1.O=C(O)C(F)(F)F", "%", 90],
  ["O=C(O)C(F)(F)F.Oc1ccc(CCNc2nc(NCc3ccccc3-c3ccc(C(F)(F)F)cc3)nc(NC3CCNCC3)n2)cc1", "%", 97]
]}

----------
tested on: Plasmodium falciparum; assay: GSK_TCMDC: Inhibition of Plasmodium falciparum Dd2 in whole red blood cells, using parasite LDH activity as an index of growth. Test compounds present at 2uM; assay type: functional

{"columns": ["smi", "Inhibition"],
 "data": [
  ["N#Cc1ccc(N2CCN(Cc3cccc(-c4ccc(-c5nc6cc(C(F)(F)F)ccc6[nH]5)cc4)c3)CC2)nc1.O=C(O)C(F)(F)F", "81%"],
  ["COc1cc2nc(NCC3CCCCC3)nc(NCc3ccccc3)c2cc1OC", "100%"],
  ["Cc1[nH]c(C)c(-c2ccc(-c3ccc(OC(F)(F)F)cc3)cc2)c(=O)c1Br", "97%"],
  ["CCN(CC)CCNC(=O)c1ccc(NC(=O)c2cc(-c3ccncc3)nc3ccccc23)cc1", "2%"],
  ["Cc1cccc(C(=O)Nc2ccnc(N(C)CCCN(C)Cc3cccc(C#N)c3)c2)c1.O=C(O)C(F)(F)F", "12%"],
  ["FC(F)(F)c1ccc2[nH]c(-c3ccc(-c4cccc(CN5CCN(CCN6CCOCC6)CC5)c4)cc3)nc2c1.O=C(O)C(F)(F)F", "77%"],
  ["Cc1cc(-c2ccc3occ(CCN)c3c2)cnc1N", "56%"],
  ["CCNc1cc(C(=O)N[C@@H](Cc2ccccc2)[C@H](O)CN[C@@H]2CCc3ccccc32)cc(N2CCCCS2(=O)=O)c1", "97%"],
  ["COc1cc2c(cc1C(F)(F)F)N(C(=O)Nc1cc(Br)cc(-c3cccnc3)c1)CC2", "34%"]
]}

----------
system: HepG2; assay: GSK_TCMDC: Percent inhibition of human HepG2 cell line. Test compounds present at 10uM.; type: functional
# maps each entry to its Inhibition

{"columns": ["compound", "target or test system", "Inhibition [%]"],
 "data": [
  ["COc1ccc(NC(=O)c2ccc3[nH]c(-c4ccc(Cl)cc4)cc3c2)cc1OCCN(C)C", "HepG2", 32],
  ["COc1nc2c(CCN3CCC(NCc4ccc5c(c4)NCCO5)CC3)c(Cl)cnc2cc1F.Cl", "HepG2", 23],
  ["NC1=NC(c2ccccc2)(c2ccccc2)C(=O)N1CC1CCC1.O=CO", "HepG2", 17],
  ["NC1=NC(c2ccccc2)(c2ccccc2)C(=O)N1C1CCCCC1.O=CO", "HepG2", 13],
  ["O=[N+]([O-])c1ccc(C=NNc2nc(Nc3ccccc3)nc(Nc3ccccc3)n2)o1", "HepG2", 5],
  ["COc1ccc2c(c1)Nc1ccc(Cl)cc1C2N.O=S(=O)(O)O (stereo not drawn)", "HepG2", 16],
  ["O=C(Nc1cccc(-c2cccc(-c3nc4ccccc4[nH]3)c2)c1)c1csnn1", "HepG2", 31],
  ["Cl.N=c1c2c(n(Cc3ccccc3)c3c1CCC3)CCCC2", "HepG2", 4],
  ["COc1ccc(C2CCN(CCCCNC(=O)c3ccc(NC(=O)c4ccc(Cl)cc4)cc3)CC2)c(OC)c1.Cl", "HepG2", 32],
  ["O=C(Nc1ccc([N+](=O)[O-])cc1)Nc1cc(OCC(F)(F)F)cc(OCC(F)(F)F)c1", "HepG2", 71],
  ["CCOc1cc(C)c(C2CCN(CCCCNC(=O)c3ccc(NC(=O)c4ccc(Cl)cc4)cc3)CC2)cc1C", "HepG2", 10],
  ["COc1ccccc1C(=O)N1CCN(Cc2cccs2)CC1", "HepG2", 87],
  ["O=C(NCC1CCN(Cc2ccsc2)C1)c1cc(-c2cccc(C(F)(F)F)c2)cs1.O=C(O)C(F)(F)F (stereo not drawn)", "HepG2", 37],
  ["O=S(=O)(c1ccccc1)C1CC1", "HepG2", 0],
  ["CN1CCN(c2ccnc3ccc(NC(=O)Cc4ccc(OCc5ccccc5)cc4)cc23)CC1", "HepG2", 6],
  ["O=C(Nc1ccnc(N2CCCN(Cc3cccc(O)c3)CC2)c1)c1ccc(F)cc1.O=C(O)C(F)(F)F", "HepG2", 12],
  ["CCNC(C)(C)CN(Cc1ccc(-c2ccc(C(F)(F)F)cc2)cc1)C(=O)Cn1c(CCc2cccc(F)c2F)nc(=O)c2ccccc21.O=C(O)C(O)C(O)C(=O)O", "HepG2", 47],
  ["CCCOc1ccc(-c2nonc2NC(=O)c2ccccc2OC)cc1OCCC", "HepG2", 23],
  ["Cl.N=C1N=C(N)NCN1OCc1ccc(Cl)c(Cl)c1", "HepG2", 14],
  ["O=C(CC(=O)C(F)(F)F)c1ccc2c(c1)OCO2", "HepG2", 44],
  ["CCN(CCO)CCc1cccc(Nc2nccc(-c3c(-c4ccc(NC(=O)N(CC)CC)cc4)nn4ccccc34)n2)c1.Cl", "HepG2", 46],
  ["CCc1nc(N)nc(N)c1-c1ccc(C(C)C)cc1", "HepG2", 3],
  ["CN(C)CC1CCCN1Cc1ccccc1-c1cnn(C)c(=O)c1Oc1ccc(F)cc1.O=C(O)C(F)(F)F (stereo not drawn)", "HepG2", 29],
  ["O=C(CCC1CCCC1)N(Cc1ccc(-c2ccc(CNCCc3ccccn3)cc2)cc1)CC1CCCCN1.O=C(O)C(F)(F)F (stereo not drawn)", "HepG2", 32],
  ["CCN(CC)CCOc1cc2c(cc1Br)-c1cc(Br)c(OCCN(CC)CC)cc1C2=NO.Cl", "HepG2", 99],
  ["O=C(/C=C/c1ccc(Cl)c(Cl)c1)NCCCCCN1CCC(C(=O)Nc2ccc(Cl)cc2)CC1", "HepG2", 42],
  ["COc1cc2nc(N3CCN(C(=O)c4c(Cl)nsc4-c4ccccc4Cl)CC3)nc(N)c2cc1OC.O=C(O)C(F)(F)F", "HepG2", 57],
  ["N#CCSc1nnc(-c2ccccc2)c2ccccc12", "HepG2", 5],
  ["COc1cccc(C2CCN(CCCCNC(=O)c3ccc(NC(=O)c4ccc(Cl)cc4)cc3)CC2)c1", "HepG2", 18],
  ["Cc1sc(NC(=O)c2ccc([N+](=O)[O-])cc2Cl)c(C(N)=O)c1C", "HepG2", 2],
  ["COc1ccc(CNCc2cccc(-c3cccc(-c4nc5ccccc5[nH]4)c3)c2)cc1.O=C(O)C(F)(F)F", "HepG2", 24],
  ["CC(=O)c1cc(N2CCOCC2)ccc1N", "HepG2", 7],
  ["O=C(Nc1ccccc1)N(Cc1ccccc1-c1cccc(CNC2CCCC2)c1)C1CCN(Cc2ccccc2)CC1.O=C(O)C(F)(F)F", "HepG2", 36],
  ["FC(F)(F)c1ccc(CNC2CCN(CC3CCCCC3)CC2)cc1.O=C(O)C(F)(F)F", "HepG2", 4],
  ["CC(=O)Nc1ncc(C(=O)Nc2cccc(-c3ccc(-c4nc5cc(C(F)(F)F)ccc5[nH]4)s3)c2)s1", "HepG2", 90],
  ["O=C(CN1CCN(C(C(=O)Nc2cc(C(F)(F)F)ccc2Cl)c2ccccc2)CC1)NC1CC1 (stereo not drawn)", "HepG2", 0],
  ["Cl.Oc1ccc2c(c1NCC1CCCCC1)CCCC2", "HepG2", 11],
  ["Cc1ccc(CN2CCCCC(NC(=O)c3cc4ccccc4s3)C2)cc1.O=C(O)C(F)(F)F (stereo not drawn)", "HepG2", 9]
]}

----------
Below is a list of entries, each paired with its recorded Inhibition value.
test system: Plasmodium falciparum; assay: GSK_TCMDC: Inhibition of Plasmodium falciparum 3D7 in whole red blood cells, using parasite LDH activity as an index of growth. Test compounds present at 2uM; assay type: functional
assay metric: Inhibition (%)

{"columns": ["smi", "assay metric", "units", "measured result"],
 "data": [
  ["CC(C)(C)c1ccc(NC(=O)c2cccc(CN3CCCN(CC4CCCCC4)CC3)c2)cc1.O=C(O)C(F)(F)F", "Inhibition", "%", 93],
  ["COc1cccc(-c2nc(Nc3ccncc3)c3ncn(C)c3n2)c1.O=C(O)C(F)(F)F", "Inhibition", "%", 94],
  ["COc1ccc2ncc(F)c(CCN3CCC(CNCc4cccc5c4OCO5)CC3)c2n1.Cl", "Inhibition", "%", 93],
  ["Cl.Oc1cc(Nc2ccnc3ccc(I)cc23)c(F)cc1Cl", "Inhibition", "%", 95],
  ["COc1ccc(Cn2cncc2CN(CCC(C)C)C(=O)c2ccc(Cl)nc2Cl)cc1.O=C(O)C(F)(F)F", "Inhibition", "%", 87],
  ["Cl.O=C(NCCCCN1CCC(c2ccc3c(c2O)CCCC3)CC1)c1ccc(NC(=O)c2ccc(Cl)cc2)cc1", "Inhibition", "%", 100],
  ["O=C(NCc1ccc(F)cc1)Nc1cccc(-c2ccc(-c3nc4ccccc4[nH]3)cc2)c1", "Inhibition", "%", 100],
  ["CCCCCN1CCCN(Cc2cccc(NC(=O)c3ccc(-c4ccccc4)cc3)c2)CC1.O=C(O)C(F)(F)F", "Inhibition", "%", 95],
  ["COCCNC(=O)C1CCN(C(c2ccc(Cl)cc2)c2ccc(Cl)cc2)CC1", "Inhibition", "%", 86]
]}
